- protocol: soluble on expression in E. coli; label from the status in PepcDB or PDB records
property.label: soluble on expression in E. coli

Solved entries:
sequence.string	soluble on expression in E. coli
MLLNEKDFKNEGVKIAALIMAESARTAPKSKGEDTIEIVYVDGEEMEKIAAKMEEMAEGGDKDFIRDAESVRKSQAILLIGAKGDRTVGVNCQACGFESCSEFKKADRKGENFVGPNCAFRMIDLGIALGSAVKVSAMLGIDTRIMYRIGIAAKKLGMIDADVVMGVPLSALGKSPYFDRAPKK	not soluble
MSKATTPGDQPKVSEMDFYQLLGVEKMASEAEIKSAYRKLALKYHPDRNPNDAHAQEEFKKVSIAYSVLSDPNKRRQYDVSGPSENQLDFEGFDVSEMGGVGRVFGALFSKLGVPIPTQIVPKVLAQARHICMGQECDVQARQLPPGETVTSSVSKQHAHFYEINIQEEHRKNGVAIICKSSSSKFKLVLFDKEGGVRMIQESGKRGKAGTQADMFFVPYNVANIQEFNAMKYHLEDKETPLAFHYLDSFEMQTATLLETRKHYIAVYGDNWISDVKYSITFLPVEPSAVEQLNEIQDTEKSISIIKKEMLDFQREFTEAKRKYDEAVAKLKVQDDTILKALAHREELYNEVLQKSQEPYNKKVSPSKSSGGLLGWFK	not soluble
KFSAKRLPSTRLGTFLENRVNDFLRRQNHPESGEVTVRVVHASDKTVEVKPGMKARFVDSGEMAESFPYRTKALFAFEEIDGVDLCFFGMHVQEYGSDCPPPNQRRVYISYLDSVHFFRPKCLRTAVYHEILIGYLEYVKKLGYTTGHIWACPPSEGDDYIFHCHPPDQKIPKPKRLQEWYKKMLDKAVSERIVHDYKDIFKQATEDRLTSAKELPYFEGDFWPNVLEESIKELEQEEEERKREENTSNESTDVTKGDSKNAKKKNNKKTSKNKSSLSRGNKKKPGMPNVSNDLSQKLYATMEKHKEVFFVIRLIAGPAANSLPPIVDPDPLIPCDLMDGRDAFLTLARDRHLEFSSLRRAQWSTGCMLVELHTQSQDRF	soluble
MGSDKIHHHHHHMPIDEWLVLNRIGIFENPSLRRYVSPFPPPELMGITSGLQSETGFAAHGADIYAALALASTIPITEYRHILDFGCGCGRLARMLKGHPHKISGCDIDLRHVKWIGQSLDFMNVKLSSVRPPIPFADDEMDAVISVSIFTHLTENSQDDFLAELFRVTRPGGTLFLTVHGAQALKRACHEQPIRHMLDMDEGRFRKAQQAFNQNKHGFVLQFGHLTTKPEKAFYTPRAIFRRIRDSFSRKTINMPFEYGIAFHPESYIREHWSKWFDILDYRHGAIHQFQDIVVLSPKK	not soluble
MGSDKIHHHHHHMITAEECRTYKEFVDLYQSYLYPLLGARLSRMYSPKNKVIIDMGTGPGYLSIQLAKRTNAHVHAVDINPAMHEIAQEEAKKSGVSSLISFDLEDVHHLSYADQYADFIVSYSCLHHWEDVVKGLKECYRVLAPGGKIVILDTFNPQGSHLEIMRKQIKEPEYFRFVREAFEESYSFEDIHQFVQDAGIPNYSLETFHFLPEDFIESLDELEDAPLWEQNDQSTDHEIESVTWMLTIEKEKEGAL	not soluble

Problem: For the sequence MGSDKIHHHHHHMKKILVVSHGAALGGSPISGLNIGRHIDKNQFEVIYAFGEEREIFDIAKKEGFKVFFVPKRSYLTIWDYAKIICREKIDIVHLNTLTSYYKYPAMAAWLCRKKIVWFVRENPEEKRCVRLGKYINALADRIVTVSLDTAKKMFYANHAKLCTIYNGIDLKFKKIEGRERLCEELGLSAREKYILCVASLEERKGVKDLVRAFLSSLPKLQGYKLLIVGEDRTKEQRYFLELKELAKDSSEVIFYGKSQKIQQLLSLSELFVLPSYWEGMARVILEAMACGLPVVASDAGGNREQVMDGVNGFLFPPRDIQALSAALEKAILGGRTQLLGKNSRELLEKNFDIKETTKKIENLYKAL , report soluble on expression in E. coli.
Solution: not soluble

Problem: Indicate its recorded soluble on expression in E. coli; the sequence in question is MGSDKIHHHHHHMSDDELLFAEEDPSDNVGEGIGRAPWVILVVDDDTEVHALSRLLLSEIEFKGRRVAMYSAYSAAEARAMLGRIDDVAVILLDVVMETDDAGLKLVRTIRETMNNRDVRIILRTGQPGQAPEREVIETYDINDYKSKTELTAQKLHTALVAALRAYDDIMALVLSRQGLRKILDAAASLYRQRSMELFAAGVLTQINALLGGDRDGILCVQSRKEQADEDDPAGAMVVLAASGAYERLVGKRVDELPESPVISLIREAAASRTSRHGSHASALYMPTGDGRETVVFLHAAEPLKAQDRALMQLFCDNISAGFDTVCEIDDLRRENVRLRARLGEAKAP
Solution: not soluble

Problem: Kindly indicate its recorded soluble on expression in E. coli. Item: MLNEKQAKHIATAIENGNYRSKRQAIVDTTNFWSVSVPIFYQFDTKLSATNIANVRKAIQFWNDNSCLSFKEDNNAKNRLFLSSAGGCWSYVGKQVDMPYQMVSVGPNCDTFGTATHELMHAIGFWHQQSRADRDNYVYVDFSNIIPSQAYNFQKMAVDQAQLLNLPYDYGSVMQYYPYAFAVDSSKYTILAKENGFQNSMGQREAPAFSDIIGVNKLYNCTSQCKIQMKCSNCGITDSRNCNQCKCPRYFTGASCDSLPSGTAPNCNGAVLQATSSWETFDAKAGDPSSFSSSTDNSTNCYWHIKAPEGQQIEFKMTKTPLAAICMQECPWQSIEVNLGKFDLFGMITCCDTILNQVFTSELNMIALRGIIRYNQLTFSIQYRAVPSSKPASTNACLNQ
Solution: not soluble

Problem: Identify measured soluble on expression in E. coli corresponding to ASGRRAPRTGLLELRCGAGSGAGGERWQRVLLSLAEDALTVSPADGEPGPEPEPAQLNGAAEPGAAPPQLPEALLLQREVSPYFKNSAGGTSVGWDSPPASPLQRQPSSPGPQPRNLSEAKHVSLKMAYVSRRCTPTDPEPRYLEICAADGQDAVFLRAKDEASARSWAGAIQAQIGT
Solution: soluble

----------
- protocol: soluble on expression in E. coli; label from the status in PepcDB or PDB records
property.label: soluble on expression in E. coli

// solved cases for soluble on expression in E. coli follow
sequence.string	soluble on expression in E. coli
MTAIEQTEAVRPRGTRLPRRARRNQLLGAAQEVFVAQGYHAAAMDDIAERAGVSKPVLYQHFPGKLDLYLALLDQHCEALIQSVRSALASTSDNKQRVRATMDAYFAYVEDDGGAFRLVFESDLTNEPAVRERVDKVTNECAEAICDVIAEDTGLSRAESMLLASGLGGLAQVVARSWLHSDRSVPRDQAVQLLTSLAWRGIAGFPLHGIEQH	not soluble
KTNTATVKVLPISMSDEGDSFLVKDSLGENKIPKNPSKVVILDLGILDTFDALKLNDKVVGVPAKNLPKYLQQFKNKPSVGGVQQVDFEAINALKPDLIIISGRQSKFYDKLKEIAPTLFVGLDNANFLSSFENNVLSVAKLYGLEKEALEKISDIKNEIEKAKSIVDEDKKALIILTNSNKISAFGPQSRFGIIHDVLGINAVDENIKVGTHGKSINSEFILEKNPDYIFVVDRNVILGNKERAQGILDNALVAKTKAAQNKKIIYLDPEYWYLASGNGLESLKTMILEIKNAVK	soluble
MAIAPQQIQERLKQEQYQKFVVADIGNFPHCLAQTPEGIASGQRYQKYSTNSLSRTPPFSQWGAPQLLTPKSAQEYIKFAQQRNKKSSFKIDGEAVRVSECSNFAYHSAGVLLDDPQIRTQYDVAVIGSMHSNGRYLHNITLLVPKGSRLPQPPQQLTAEVFPIGTLIVDPWAVGMGHPPEQALAIPKEQFAYNRSLFPATVNYQSALDESLTSTRTGQLTPYTGTPSRTGRQEVRAESQFPGTRRPVSATIPGNFAAYHELWRNAFQEIMNDPRHQLHRNDVEYKKIHAIRTVLDDYTKGGNTWWAKFRRIFTFHWNRHHVKVVDDIVKEIDAGNYTTSRALVDRLDNLAISLGSKLNPKGTLKEQIGFIKIQEQNPVEEIENLSRPNLT	not soluble
MPGIRGPSEYSQEPPRHPSLKVNAKEPFNAEPPRSALVSSYVTPVDLFYKRNHGPIPIVDHLQSYSVTLTGLIQNPRKLFIKDIRSLPKYNVTATLQCAGNRRTAMSKVRNVRGVGWDVSAIGNAVWGGAKLADVLELVGIPKLTASTNLGARHVEFVSVDRCKEENGGPYKASITLSQATNPEADVLLAYEMNGETLNRDHGFPLRVVVPGVIGARSVKWLDSINVIAEESQGFFMQKDYKMFPPSVNWDNINWSSRRPQMDFPVQSAICSVEDVQMVKPGKVSIKGYAVSGGGRGIERVDISLDGGKNWVEASRTQEPGKQYISEHSSSDKWAWVLFEATIDVSQTTEVIAKAVDSAANVQPENVESVWNLRGVLNTSWHRVLLRLGHSNL	soluble

Kindly review the next sequence as well.
Problem: Return reported soluble on expression in E. coli. Input sequence: MGSDKIHHHHHHMIELIATAESVEQAVELLATGVDTLYIGEETFGLRLPVSFTRDEQREIVKRAHEMGKQVLVAVNGIMHPEKMKLVPEYLTFLKEINVDKITLGDPGIVFIMQRDGLEIPYVYDGETLVTSSRQINFWSKRGAIGAVLAREVPFEEMVAMEENLAVPAEILVYGATCIHQSKRPLIQNYYNYTKNDKGVTKDEGLFISEPKKPETHYSIYEDSHGTHIFANNDVNLMNELTNLYDHHYRTWKLDGLYTPGENFVAIARLFAEAKAALEAGTWSEDQAAHATAEIEKLHPTGRGLDNGFFDLSADAIK
Solution: not soluble
